Catalogue of growth values
Tested on: KM12 colon
Assay: NCI-60 one-dose screen, 48 h (100 = growth as untreated, 0 = no growth, -100 = all killed)
Settings: 10 µM unless noted
Protocol: Growth inhibition of the KM12 human tumor cell line is measured as a screen for anti-cancer activity. Cells are grown in 96 well plates and exposed to the test compound for 48 hours. Compounds are tested at a single concentration, which is 10^-5 M for most compounds. The reported endpoint is percent growth (GI% or GIPRCNT), where numbers from 0 - 100% represent growth inhibition, and numbers from -100% - 0 represent cell death. For example, a value of 40 represents 60% growth inhibition. […]
About 83,000 compounds went through this panel and 20% of them were active in at least one assay; those are over-represented in the sample as a whole.
The reply should be a number in %, with the unit left off.

Prompt: Which growth is reported for this molecule? O=C1OC(c2ccc(-c3ccccc3)cc2)=C/C1=C/c1c2ccccc2cc2ccccc12
Completion: 97.3

Prompt: Which growth is reported for this molecule? COc1cc2c(/C=C3\C(=O)Nc4ccc(Br)cc43)c(Cl)n(C)c2cc1C
Completion: -21.5

Prompt: Which growth is reported for this molecule? COc1cc(Cn2ccc3c2-c2oncc2CC3)cc(OC)c1
Completion: 24.5

Prompt: Which growth is reported for this molecule? C/C(=C\c1ccc2ccccc2c1)[N+](=O)[O-]
Completion: 56

Prompt: Which growth is reported for this molecule? COC1(OC)N=C(N)C2(C#N)C3(C(=O)Nc4ccccc43)C12C#N (stereo unspecified)
Completion: 101

Query molecule follows.
Prompt: Which growth is reported for this molecule? O=C1c2cc([N+](=O)[O-])ccc2-c2cc(Cl)c(NC(=O)C(F)(F)F)cc21
Completion: 114
